procedure-details: Cytotoxicity against human L02 cells assessed as reduction in cell viability measured after 24 hrs by CCK-8 assay
Format: toxicity, cell-based
Bridge positions count the residues as written; N and C are the ends. Square brackets hold non-standard residues; d marks the D form. I, II: the chains in the order shown. ξ: configuration not given here. ξN = NC(=O)CC(N)C(=O)O
parameter-measured: IC50 at 24 h (µM)
Respond numerically; units are µM and should not be typed.

{"columns": ["substance", "IC50 at 24 h, µM"],
 "data": [
  ["I: H-WELVVLGKLGLRKRLRKFRNKIKEK / II: H-GLRKRLRKFR[ξN]KIKEK-OH (amide I:C-II:4)", 18.4]
]}

Now take the following substance into account.
Query :: For the substance I: H-WELVVLGKLLLHHLLHHLLHHGLRKRLRKFRNKIKEK / II: H-GLRKRLRKFRNKIKEK-NH2 (amide I:C-II:4) , what IC50 at 24 h is on record?
Result :: 11.1

* * *

procedure-details: Cytotoxicity against human BEAS-2B cells assessed as reduction in cell viability measured after 24 hrs by CCK-8 assay
Assay type: toxicity, cell-based
parameter-measured: IC50 at 24 h

{"columns": ["input-smiles", "reported-value"],
 "data": [
  ["N=C(N)NCCC[C@H](NC(=O)[C@H](CCCNC(=N)N)NC(=O)[C@H](CCCNC(=N)N)NC(=O)[C@H](CCCNC(=N)N)NC(=O)[C@H](CCCNC(=N)N)NC(=O)[C@H](CCCNC(=N)N)NC(=O)[C@H](CCCNC(=N)N)NC(=O)[C@H](CCCNC(=N)N)NC(=O)[C@@H](N)CCCNC(=N)N)C(=O)O", "> 100 µM"]
]}

Query :: Quick one: IC50 at 24 h of N=C(N)NCCC[C@H](NC(=O)[C@H](CCCNC(=N)N)NC(=O)[C@H](CCCNC(=N)N)NC(=O)[C@H](CCC(N)=O)NC(=O)[C@H](CCCNC(=N)N)NC(=O)[C@H](CCCNC(=N)N)NC(=O)[C@H](CCCCN)NC(=O)[C@H](CCCCN)NC(=O)[C@H](CCCNC(=N)N)NC(=O)CNC(=O)[C@@H](N)Cc1ccc(O)cc1)C(=O)O ?
Result :: > 100 µM
